- target-desc: Delta-type opioid receptor (Mus musculus, UniProt P32300)
- Sequence (P32300 whole entry): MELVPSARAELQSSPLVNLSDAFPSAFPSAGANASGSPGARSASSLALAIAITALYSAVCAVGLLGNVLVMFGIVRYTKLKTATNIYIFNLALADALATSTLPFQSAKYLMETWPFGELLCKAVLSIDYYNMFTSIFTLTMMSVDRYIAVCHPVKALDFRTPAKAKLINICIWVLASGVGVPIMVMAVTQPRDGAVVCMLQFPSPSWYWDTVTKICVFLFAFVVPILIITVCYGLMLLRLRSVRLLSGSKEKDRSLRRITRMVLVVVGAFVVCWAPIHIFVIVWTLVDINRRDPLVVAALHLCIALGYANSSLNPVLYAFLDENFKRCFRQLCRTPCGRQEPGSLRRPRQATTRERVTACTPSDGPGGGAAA
- method-notes: Inhibition of delta-selective antagonist binding to opioid receptor of mouse vas dferens
Bridge positions count the residues as written; N and C are the ends. Peptide text beside a SMILES is read from it.
Form field: pIC50 (one value per entry).
Give only the number. pIC50 is defined as minus log10 of concentration in molar units.

Some compounds with known pIC50 results, for comparison:
>>> readout_value("CC(C)C[C@H](NC(=O)[C@H](Cc1ccccc1)NC(=O)CNC(=O)CNC(=O)[C@@H](N)Cc1ccc(O)cc1)C(=O)N[C@@H](CCCN=C(N)N)C(=O)N[C@@H](CCCN=C(N)N)C(=O)N[C@H]1CSSC[C@H](C(N)=O)NC(=O)[C@H](CC(C)C)NC(=O)[C@H](CCCCN)NC(=O)[C@@H]2CCCN2C(=O)[C@H](CCCN=C(N)N)NC1=O")
8.04
>>> readout_value("CC(C)C[C@H](NC(=O)[C@H](Cc1ccccc1)NC(=O)CNC(=O)CNC(=O)[C@@H](N)Cc1ccc(O)cc1)C(=O)N[C@@H](CCCNC(=N)N)C(=O)N[C@@H](CCCNC(=N)N)C(=O)N[C@@H]1CSSC[C@H](C(=O)N[C@@H](CCCCN)C(N)=O)NC(=O)[C@H](CCCCN)NC(=O)[C@@H]2CCCN2C(=O)[C@H](CCCNC(=N)N)NC1=O")
7.60

// below: pIC50 requested for another compound
Enquiry: Could you please provide reported pIC50 for CC[C@H](C)[C@@H]1NC(=O)[C@H](CCCNC(=N)N)NC(=O)[C@@H](NC(=O)[C@H](CC(C)C)NC(=O)[C@H](Cc2ccccc2)NC(=O)CNC(=O)CNC(=O)[C@@H](N)Cc2ccc(O)cc2)CSSC[C@@H](C(=O)N[C@@H](CCCCN)C(N)=O)NC(=O)[C@H](CCCNC(=N)N)NC1=O (H-YGGFLCRIRCK-NH2; disulfide 6-10) ? Thanks!
Return: 7.03

###

Bridge positions count the residues as written; N and C are the ends. Square brackets hold non-standard residues; d marks the D form. Peptide text beside a SMILES is read from it. Pen = CC(C)(S)[C@H](N)C(=O)O
Parameter pIC50, tested on Mu-type opioid receptor (Cavia porcellus, UniProt P97266), listed per item.
Sequence (P97266 whole entry): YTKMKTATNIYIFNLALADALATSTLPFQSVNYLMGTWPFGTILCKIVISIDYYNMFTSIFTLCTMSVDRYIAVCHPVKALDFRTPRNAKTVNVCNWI
Give only the number. pIC50 is defined as minus log10 of concentration in molar units.

Some compounds with known pIC50 results, for comparison:
>>> readout_value("CC[C@H](C)[C@@H]1NC(=O)[C@H](CCCN=C(N)N)NC(=O)[C@H](CCCN=C(N)N)NC(=O)[C@@H](NC(=O)[C@H](Cc2ccccc2)NC(=O)CNC(=O)CNC(=O)[C@@H](N)Cc2ccc(O)cc2)CSSC[C@@H](C(=O)N[C@@H](CCCCN)C(N)=O)NC(=O)[C@H](CCCN=C(N)N)NC1=O (H-YGGFCRRIRCK-NH2; disulfide 5-10)")
8.37
>>> readout_value("CC[C@H](C)[C@@H]1NC(=O)[C@H](CCCNC(=N)N)NC(=O)[C@H](CCCNC(=N)N)NC(=O)[C@@H](NC(=O)[C@H](Cc2ccccc2)NC(=O)CNC(=O)CNC(=O)[C@@H](N)Cc2ccccc2)CSSC[C@@H](C(N)=O)NC(=O)[C@@H]2CCCN2C(=O)[C@H](CCCNC(=N)N)NC1=O (H-FGGFCRRIRPC-NH2; disulfide 5-11)")
7.21
>>> readout_value("CC[C@H](C)[C@@H]1NC(=O)[C@H](CCCN=C(N)N)NC(=O)[C@H](CCCN=C(N)N)NC(=O)[C@@H](NC(=O)[C@H](Cc2ccccc2)NC(=O)CNC(=O)CNC(=O)[C@@H](N)Cc2ccc(O)cc2)C(C)(C)SSC[C@@H](C(N)=O)NC(=O)[C@@H]2CCCN2C(=O)[C@H](CCCN=C(N)N)NC1=O (H-YGGF[Pen]RRIRPC-NH2; disulfide 5-11)")
8.90
>>> readout_value("CC(C)C[C@H](NC(=O)[C@H](Cc1ccccc1)NC(=O)CNC(=O)CNC(=O)[C@@H](N)Cc1ccc(O)cc1)C(=O)N[C@@H](CCCN=C(N)N)C(=O)N[C@@H](CCCN=C(N)N)C(=O)N[C@H]1CSSC[C@H](C(N)=O)NC(=O)[C@H](CC(C)C)NC(=O)[C@H](CCCCN)NC(=O)[C@@H]2CCCN2C(=O)[C@H](CCCN=C(N)N)NC1=O")
9.42
>>> readout_value("CC[C@H](C)[C@@H]1NC(=O)[C@H](CCCNC(=N)N)NC(=O)[C@H](CCCNC(=N)N)NC(=O)[C@@H](NC(=O)[C@H](Cc2ccccc2)NC(=O)CNC(=O)CNC(=O)[C@@H](N)Cc2ccc(O)cc2)CSSC[C@@H](C(N)=O)NC(=O)[C@H](CC(C)C)NC(=O)[C@H](CCCCN)NC(=O)[C@H]2CCCN2C(=O)[C@H](CCCNC(=N)N)NC1=O")
8.61

Enquiry: Could you please provide reported pIC50 for CC[C@H](C)[C@@H]1NC(=O)[C@H](CCCN=C(N)N)NC(=O)[C@H](CCCN=C(N)N)NC(=O)[C@@H](NC(=O)[C@H](Cc2ccccc2)NC(=O)CNC(=O)CNC(=O)[C@@H](N)Cc2ccc(O)cc2)CSSC[C@@H](C(=O)N[C@@H](CCCN=C(N)N)C(=O)N[C@@H](CCCCN)C(N)=O)NC1=O (H-YGGFCRRICRK-NH2; disulfide 5-9) ? Thanks!
Return: 8.24

###

- target-desc: Kappa-type opioid receptor (Cavia porcellus, UniProt P41144)
- Sequence (P41144 whole entry): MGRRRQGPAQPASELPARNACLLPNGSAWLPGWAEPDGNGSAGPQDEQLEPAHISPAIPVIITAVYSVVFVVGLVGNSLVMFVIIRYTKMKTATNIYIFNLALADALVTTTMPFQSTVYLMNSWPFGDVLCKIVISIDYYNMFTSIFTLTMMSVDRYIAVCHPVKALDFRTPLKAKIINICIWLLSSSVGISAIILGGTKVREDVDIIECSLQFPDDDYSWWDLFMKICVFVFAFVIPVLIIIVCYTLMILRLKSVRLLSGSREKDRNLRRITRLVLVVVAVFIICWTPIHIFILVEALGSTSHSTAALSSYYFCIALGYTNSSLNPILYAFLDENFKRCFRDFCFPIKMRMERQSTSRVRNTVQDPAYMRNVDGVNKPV
- method-notes: Inhibition of [3H]U-69593 binding to kappa opioid receptor of guinea pig brain homogenate
Bridge positions count the residues as written; N and C are the ends. Square brackets hold non-standard residues; d marks the D form. Peptide text beside a SMILES is read from it. Pen = CC(C)(S)[C@H](N)C(=O)O
measurement-name: pIC50
Give only the number. pIC50 is defined as minus log10 of concentration in molar units.

>>> readout_value("CC(C)C[C@H](NC(=O)[C@H](Cc1ccccc1)NC(=O)CNC(=O)CNC(=O)[C@@H](N)Cc1ccc(O)cc1)C(=O)N[C@@H](CCCNC(=N)N)C(=O)N[C@@H](CCCNC(=N)N)C(=O)N[C@@H]1CSSC[C@H](C(=O)N[C@@H](CCCCN)C(N)=O)NC(=O)[C@H](CCCCN)NC(=O)[C@@H]2CCCN2C(=O)[C@H](CCCNC(=N)N)NC1=O")
9.94
>>> readout_value("CC[C@H](C)[C@@H]1NC(=O)[C@H](CCCN=C(N)N)NC(=O)[C@H](CCCN=C(N)N)NC(=O)[C@@H](NC(=O)[C@H](Cc2ccccc2)NC(=O)CNC(=O)CNC(=O)[C@@H](N)Cc2ccc(O)cc2)C(C)(C)SSC[C@@H](C(N)=O)NC(=O)[C@@H]2CCCN2C(=O)[C@H](CCCN=C(N)N)NC1=O (H-YGGF[Pen]RRIRPC-NH2; disulfide 5-11)")
9.28

Enquiry: Output reported pIC50 of the molecule CC[C@H](C)[C@@H]1NC(=O)[C@H](CCCN=C(N)N)NC(=O)[C@H](CCCN=C(N)N)NC(=O)[C@@H](NC(=O)[C@H](Cc2ccccc2)NC(=O)CNC(=O)CNC(=O)[C@@H](N)Cc2ccc(O)cc2)CSSC[C@@H](C(=O)N[C@@H](CCCCN)C(N)=O)NC(=O)[C@H](CCCN=C(N)N)NC1=O (H-YGGFCRRIRCK-NH2; disulfide 5-10) on Kappa-type opioid receptor (Cavia porcellus, UniProt P41144).
Return: 9.23

Enquiry: Output reported pIC50 of the molecule CC[C@H](C)[C@@H]1NC(=O)[C@H](CCCN=C(N)N)NC(=O)[C@H](CCCN=C(N)N)NC(=O)[C@@H](NC(=O)[C@H](Cc2ccccc2)NC(=O)CNC(=O)CNC(=O)[C@@H](N)Cc2ccc(O)cc2)CSSC[C@@H](C(=O)N2CCC[C@H]2C(=O)N[C@@H](CCCCN)C(N)=O)NC1=O (H-YGGFCRRICPK-NH2; disulfide 5-9) on Kappa-type opioid receptor (Cavia porcellus, UniProt P41144).
Return: 9.06

Enquiry: Output reported pIC50 of the molecule CC(C)C[C@H](NC(=O)[C@H](Cc1ccccc1)NC(=O)CNC(=O)CNC(=O)[C@@H](N)Cc1ccc(O)cc1)C(=O)N[C@@H](CCCN=C(N)N)C(=O)N[C@@H](CCCN=C(N)N)C(=O)N[C@H]1CSSC[C@H](C(N)=O)NC(=O)[C@H](CC(C)C)NC(=O)[C@H](CCCCN)NC(=O)[C@@H]2CCCN2C(=O)[C@H](CCCN=C(N)N)NC1=O on Kappa-type opioid receptor (Cavia porcellus, UniProt P41144).
Return: 10.46

Enquiry: Output reported pIC50 of the molecule CC[C@H](C)[C@@H]1NC(=O)[C@H](CCCNC(=N)N)NC(=O)[C@H](CCCNC(=N)N)NC(=O)[C@@H](NC(=O)[C@H](Cc2ccccc2)NC(=O)CNC(=O)CNC(=O)[C@@H](N)Cc2ccc(O)cc2)CSSC[C@@H](C(N)=O)NC(=O)[C@H](CC(C)C)NC(=O)[C@H](CCCCN)NC(=O)[C@H]2CCCN2C(=O)[C@H](CCCNC(=N)N)NC1=O on Kappa-type opioid receptor (Cavia porcellus, UniProt P41144).
Return: 9.68
